Where these numbers come from: the supplement of paper PMC8728848

Kindly state glycan array binding signal (z-score) for each of the entries shown.
biological target: Neu5Ac(a2-6)GalNAc(b1-4)GlcNAc; assay: glycan array binding signal (z-score within array); higher = stronger binding; settings: glycan notation: IUPAC condensed, linker removed
This excerpt belongs to a sample that is enriched for the strongest signals.

Consider the following illustrative entries.
binder	measured
HA-11100 (Pseudomonas aeruginosa), Q02G51_PSEAB (protein) QFNPNEIKISQQGKTTLIDQSTQRAIINWKGFDVSADEAVRFNQPGVTSSTLNRVTAGQESVIAGRISAPGQVIIYNSNGVVFSGSAKVDVGSLITTTANISDEHFRQGKLIFDQPGNPDARIVNDGSISVAEKGLAAFVAPSVANNGVINARLGTVAMAAGNAATIDLYG	-0.851
Mg1lysM (Mycosphaerella graminicola) (protein) QRNPITITPQFDCGATNSQQYVARSGDTLTKIAQEIYHDVVGVCDIARANNLADPNRIDAGTPYTIPINCQTYDRNSCL	0.004

Here is another binder to look at.
Q: Item Epa3to2 (Candida glabrata) (protein) MGSSHHHHHHSSGLVPRGSHMKRELSSQNPFGYPIGCSPQDVAIIPGLTMELYSYPIVSGTPPNCYDASYVDPEYPRTGYLKRKMVGKSTGVTGNLNYKYSVEKACMVKYGNLPAGYNYNEPLTVSNFTMILYGYFKAQTTGLHTFFVNADDLLYINFGAGNAFDCCKREDSKTKLGEYVAYDIWHVDSSKNKVSLFLEKDLYYPIRMFFNNRDNNSSLDLSFSVNGATDQISDFSGYLYSVPDQPDTCPAHIGYDTTCR has what recorded glycan array binding signal (z-score)?
A: -0.698
